Data origin, for the record: ChEMBL document CHEMBL1138445

EXPERIMENT_NOTES: Half life in Sprague-Dawley rat at 2 mg/kg, iv
Assay type: ADME, organism-based
Set-up: dose 2 mg/kg, route intravenous
CONDITION_INFO: in vivo
OBSERVED_PROPERTY: half-life (min)
Hi! Could you send only the number? It should be in min, unit omitted.

In: May I ask what half-life has been recorded for O[C@@H](CN1c2cccc(-c3cccc(OC(F)(F)F)c3)c2CC[C@@H]1c1cccc(OC(F)(F)F)c1)C(F)(F)F [TETRAHYDROQUINOLINE A] ?
Out: 1040

----------
EXPERIMENT_NOTES: Volume of distribution at steady state in Sprague-Dawley rat at 2 mg/kg, iv
Type: ADME, organism-based
Parameters: dose 2 mg/kg, route intravenous
CONDITION_INFO: in vivo, read-out: Vdss
OBSERVED_PROPERTY: Vd (L/kg)
Quick reminder: number only, in L/kg, skip the unit.

In: Could you share which Vd value was measured for O[C@@H](CN1c2cccc(-c3cccc(OC(F)(F)F)c3)c2CC[C@@H]1c1cccc(OC(F)(F)F)c1)C(F)(F)F [TETRAHYDROQUINOLINE A] ?
Out: 0.36
